As shown below, each of these compounds has a reported pEC50 value.
biological target: Estrogen receptor (Homo sapiens, UniProt P03372); experiment: Agonist activity at human ERalpha expressed in HEK293T cells after 24 hrs by ERE-based dual luciferase reporter gene assay; format: cell-based
Sequence (P03372 whole entry): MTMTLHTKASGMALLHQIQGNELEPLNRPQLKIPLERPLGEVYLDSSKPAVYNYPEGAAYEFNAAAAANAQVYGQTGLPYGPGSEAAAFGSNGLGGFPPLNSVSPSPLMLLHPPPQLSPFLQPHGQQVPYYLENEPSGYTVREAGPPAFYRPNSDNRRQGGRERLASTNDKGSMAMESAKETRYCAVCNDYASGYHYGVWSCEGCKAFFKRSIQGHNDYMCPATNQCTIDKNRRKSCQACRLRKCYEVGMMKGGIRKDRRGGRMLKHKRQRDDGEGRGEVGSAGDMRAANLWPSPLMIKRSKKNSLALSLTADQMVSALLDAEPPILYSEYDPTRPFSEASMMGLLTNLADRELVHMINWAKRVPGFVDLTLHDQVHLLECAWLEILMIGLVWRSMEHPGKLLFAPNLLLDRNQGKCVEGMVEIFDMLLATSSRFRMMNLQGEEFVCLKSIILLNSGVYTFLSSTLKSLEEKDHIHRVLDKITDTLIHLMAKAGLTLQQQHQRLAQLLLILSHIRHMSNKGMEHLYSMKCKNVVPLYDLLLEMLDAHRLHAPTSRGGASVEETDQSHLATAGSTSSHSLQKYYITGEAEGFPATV
Answer as the number alone; pEC50 is minus log10 of concentration in mol/L.

Reference set, count: 4
# Compound, System Name, pEC50
rows = [
    ("Cc1ccc(OS(=O)(=O)C2CC3OC2C(c2ccc(/C=C/c4cc(O)cc(O)c4)cc2)=C3c2ccc(O)cc2)cc1 (stereo not given)", "Estrogen receptor (Homo sapiens, UniProt P03372)", 7.15),
    ("Cc1ccccc1OS(=O)(=O)C1CC2OC1C(c1ccc(/C=C/c3cc(O)cc(O)c3)cc1)=C2c1ccc(O)cc1 (stereo not given)", "Estrogen receptor (Homo sapiens, UniProt P03372)", 5.90),
    ("O=S(=O)(Oc1ccc(-c2ccccc2)cc1)C1CC2OC1C(c1ccc(/C=C/c3cc(O)cc(O)c3)cc1)=C2c1ccc(O)cc1 (stereo not given)", "Estrogen receptor (Homo sapiens, UniProt P03372)", 5.31),
    ("O=S(=O)(Oc1ccccc1Cl)C1CC2OC1C(c1ccc(/C=C/c3cc(O)cc(O)c3)cc1)=C2c1ccc(O)cc1 (stereo not given)", "Estrogen receptor (Homo sapiens, UniProt P03372)", 6.56),
]

Now, please, on to the next compound.
Query: pEC50; subject: CCc1ccccc1OS(=O)(=O)C1CC2OC1C(c1ccc(/C=C/c3cc(OC)cc(OC)c3)cc1)=C2c1ccc(O)cc1 (stereo not given)
6.84
